biological target: Neuronal acetylcholine receptor subunit alpha-7 (Homo sapiens, UniProt P36544); assay: Activation of human alpha7 nAChR assessed as potentiation of submaximal response to nicotine induced current
Sequence (P36544 whole entry): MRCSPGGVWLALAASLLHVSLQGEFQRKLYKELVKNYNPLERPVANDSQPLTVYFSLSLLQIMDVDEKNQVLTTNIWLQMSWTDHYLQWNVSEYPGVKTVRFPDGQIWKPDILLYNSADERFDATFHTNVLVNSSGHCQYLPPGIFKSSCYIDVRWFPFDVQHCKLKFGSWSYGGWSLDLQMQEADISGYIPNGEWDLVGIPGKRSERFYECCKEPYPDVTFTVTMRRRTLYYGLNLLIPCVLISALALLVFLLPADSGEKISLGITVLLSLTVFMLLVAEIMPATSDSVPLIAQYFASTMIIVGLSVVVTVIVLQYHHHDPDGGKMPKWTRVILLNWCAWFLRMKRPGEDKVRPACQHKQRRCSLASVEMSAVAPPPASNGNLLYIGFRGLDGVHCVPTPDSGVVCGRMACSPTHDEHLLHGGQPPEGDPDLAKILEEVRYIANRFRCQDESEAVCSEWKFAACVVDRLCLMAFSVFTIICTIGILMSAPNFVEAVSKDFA
pEC50: −log10 of the molar value.
assay-endpoint: pEC50

# get_value(readout='pEC50', item= `Cc1c(-c2cc(-c3ccccc3Cl)no2)cnn1C1CCNCC1` )
< 4.00

---

target: Neuronal acetylcholine receptor; alpha3/beta2 (Homo sapiens, UniProt P17787+P32297); assay: Activation of human alpha3beta2 nAChR assessed as potentiation of submaximal response to nicotine induced current
Sequence (P17787 whole entry): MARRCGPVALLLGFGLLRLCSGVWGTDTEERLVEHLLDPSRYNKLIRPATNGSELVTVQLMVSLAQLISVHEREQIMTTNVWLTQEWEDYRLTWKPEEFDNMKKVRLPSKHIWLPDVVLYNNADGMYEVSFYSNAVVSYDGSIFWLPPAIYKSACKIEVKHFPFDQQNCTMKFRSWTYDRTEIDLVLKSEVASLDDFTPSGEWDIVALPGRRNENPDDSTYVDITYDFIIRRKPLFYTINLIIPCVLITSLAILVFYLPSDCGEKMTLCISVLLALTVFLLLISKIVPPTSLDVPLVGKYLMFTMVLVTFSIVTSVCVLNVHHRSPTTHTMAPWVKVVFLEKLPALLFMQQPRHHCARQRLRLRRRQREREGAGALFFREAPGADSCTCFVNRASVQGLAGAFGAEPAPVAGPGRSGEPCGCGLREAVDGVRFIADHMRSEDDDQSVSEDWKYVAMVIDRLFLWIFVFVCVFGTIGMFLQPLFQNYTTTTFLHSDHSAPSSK
Sequence (P32297 whole entry): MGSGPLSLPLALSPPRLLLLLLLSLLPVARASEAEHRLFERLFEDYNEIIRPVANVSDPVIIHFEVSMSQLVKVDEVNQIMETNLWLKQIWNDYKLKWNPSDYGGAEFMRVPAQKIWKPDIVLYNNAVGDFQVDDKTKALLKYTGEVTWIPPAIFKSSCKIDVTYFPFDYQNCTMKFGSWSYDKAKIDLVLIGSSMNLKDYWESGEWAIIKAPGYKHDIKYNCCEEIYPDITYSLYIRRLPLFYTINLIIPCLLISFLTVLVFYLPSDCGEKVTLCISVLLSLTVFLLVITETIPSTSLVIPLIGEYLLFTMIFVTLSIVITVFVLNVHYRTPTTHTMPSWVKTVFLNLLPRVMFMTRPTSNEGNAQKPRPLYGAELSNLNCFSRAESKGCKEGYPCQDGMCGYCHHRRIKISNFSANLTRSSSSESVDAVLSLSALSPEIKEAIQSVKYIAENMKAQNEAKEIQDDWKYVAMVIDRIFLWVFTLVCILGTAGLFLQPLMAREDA
molecules and their reported EC50

// query EC50 value for entry `Clc1ccccc1-c1cc(-c2cnn(C3CCNCC3)c2)on1`
> 100 µM

What about `CN(Cc1cc(-c2ccccc2Cl)no1)C(=O)C1CCNCC1` ?
> 100 µM

---

// reported concentration at 1 h for each item listed
assay: Plasma concentration in Sprague-Dawley rat at 5 mg/kg, ip after 1 hr; format: ADME, organism-based; set-up: dose 5 mg/kg, route intraperitoneal
Write down the numeric answer in µM and omit the unit.

// known answers, use as guide
{"chemical-string": "Cc1c(-c2cc(-c3ccccc3Cl)no2)cnn1C1CCNCC1", "measurement": 0.61}
{"chemical-string": "Clc1ccccc1-c1cc(-c2cnc(C3CCNCC3)s2)on1", "measurement": 0.3}

// below: concentration at 1 h requested for another compound
Recorded concentration at 1 h for `CCn1c(-c2cc(-c3c(F)cccc3Cl)no2)cnc1C1(F)CCNCC1` , please?
0.6

---

target: Neuronal acetylcholine receptor; alpha4/beta2 (Homo sapiens, UniProt P17787+P43681); test: Activation of human alpha4beta2 nAChR assessed as potentiation of submaximal response to […] relative to maximal nicotine response; type: protein-complex assay
assay-endpoint: Efficacy (%)
Please respond with the number in % and leave the unit unwritten.

Param item = `Clc1cccc(Cl)c1-c1cc(-c2cnn(C3CCNCC3)c2)on1` ; retrieve measured Efficacy.
73

Try this compound next: `Cc1c(-c2cc(-c3ccccc3Cl)no2)cnn1C1CCNCC1`
71

---

Examples of molecules with documented efflux ratio follow.
system: MDR1; experiment: Permeability efflux ratio in MDR1 expressing pig LLC-PK1 cells; assay type: ADME, cell-based, Sus scrofa
Lab note: jot down the number only; don't add units.

{"chemical-string": "CCn1c(-c2cc(-c3c(F)cccc3Cl)no2)cnc1C1(F)CCNCC1", "measurement": 1}

// lookup efflux ratio for `Cn1c(-c2cc(-c3c(F)cccc3Cl)no2)cnc1C1(F)CCNCC1`
1

---

biological target: Neuronal acetylcholine receptor; alpha3/beta4 (Homo sapiens, UniProt P30926+P32297); test: Activation of human alpha3beta4 nAChR assessed as potentiation of submaximal response to nicotine induced current
Sequence (P30926 whole entry): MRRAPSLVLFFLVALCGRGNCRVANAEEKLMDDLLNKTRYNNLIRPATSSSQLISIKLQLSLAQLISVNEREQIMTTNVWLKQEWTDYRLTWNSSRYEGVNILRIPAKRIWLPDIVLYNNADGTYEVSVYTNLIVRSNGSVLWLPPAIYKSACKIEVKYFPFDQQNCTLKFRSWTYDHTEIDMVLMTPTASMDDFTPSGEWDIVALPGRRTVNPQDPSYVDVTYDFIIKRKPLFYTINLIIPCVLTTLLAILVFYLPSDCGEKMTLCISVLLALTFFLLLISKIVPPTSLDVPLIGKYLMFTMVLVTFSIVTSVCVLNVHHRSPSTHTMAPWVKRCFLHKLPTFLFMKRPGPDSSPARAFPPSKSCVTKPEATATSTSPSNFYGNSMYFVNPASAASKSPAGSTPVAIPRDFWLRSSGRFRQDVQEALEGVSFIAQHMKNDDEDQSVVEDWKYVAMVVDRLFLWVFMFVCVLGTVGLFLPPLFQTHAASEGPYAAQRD
Sequence (P32297 whole entry): as the sequence (P32297 whole entry) above
Property: EC50; scope: individual molecules

{"chemical-string": "Clc1ccccc1-c1cc(-c2cnn(C3CCNCC3)c2)on1", "EC50": "> 100 µM"}

For the next question, use this molecule.
Sample `CN(Cc1cc(-c2ccccc2Cl)no1)C(=O)C1CCNCC1` — what was its EC50?
> 100 µM

---

molecular target: Neuronal acetylcholine receptor; alpha4/beta2 (Homo sapiens, UniProt P17787+P43681); assay: Activation of human alpha4beta2 nAChR assessed as potentiation of submaximal response to […] relative to maximal nicotine response; assay type: protein-complex assay
assay-endpoint: Efficacy
Write your answer as a measured quantity: the number, then the unit.

{"chemical-string": "Clc1ccccc1-c1cc(-c2cnn(C3CCNCC3)c2)on1", "Efficacy": "38%"}
{"chemical-string": "Clc1ccccc1-c1cc(-c2cnc(C3CCNCC3)s2)on1", "Efficacy": "63%"}
{"chemical-string": "Clc1cnccc1-c1cc(-c2cnn(C3CCNCC3)c2)on1", "Efficacy": "50%"}

# query: Efficacy of entry `CCn1c(-c2cc(-c3c(F)cccc3Cl)no2)cnc1C1(F)CCNCC1`
74%

Same thing, different molecule: `Fc1cccc(-c2cc(-c3cnn(C4CCNCC4)c3)on2)c1Cl`
47%

Same for `Cc1c(-c2cc(-c3ccccc3)no2)cnn1C1CCNCC1`
31%

Where do the numbers come from? From ChEMBL document CHEMBL1141716.
